Where do the numbers come from? From PubChem BioAssay AID868.

assay: inhibitors of the yeast RAM network, primary screen, dse1pr::URA3 reporter, 5-FOA selection (AID 868);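 further: 0% = DMSO-only wells with no growth and 100% = 10 µM 1-NA-PP1 full growth; inhibition rescues growth on 5-FOA so higher OD means more RAM inhibition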; details: S. cerevisiae dse1pr::URA3 reporter, 5-FOA growth OD615, 2 d; at 50 µM; stronger effect = higher value; analog-sensitive cbk1-as2 kinase mutant strain
Screen size: about 190,000 compounds; about 3,500 (1.8%) were called active. The entries come from a sample that favours actives as a whole.
quantity_measured: inhibition (%)
# value in %; strip the unit string

Use the examples below as a reference point.
1. CC(C)c1csc(CN2CCC(CO)(Cc3ccccc3)CC2)n1 :: 1.22
2. C/C(=C\c1ccco1)C1Nc2cccc3cccc(c23)N1 :: 8.69
3. Cc1ccc(N(C(=O)C(F)(F)F)C(C(=O)NC2CCCCC2)c2ccncc2)cc1C (stereo unspecified) :: 4.82
4. Cc1ccc(NC(=O)CN(C)CC(=O)Nc2cccc(F)c2)cc1[N+](=O)[O-] :: 1.7
5. Cn1nnnc1-c1cc(Cl)cc(Cl)c1 :: -0.86
6. COC(=O)c1ccc(NC(=O)c2ccco2)cc1 :: 0.13
7. CCN(CC)Cc1nc2sc(C)c(C)c2c(=O)[nH]1 :: 2.28
8. CC(/C=N/NC(=O)c1ccncc1)=C\c1ccco1 :: 1.91
9. COCCN(C(=O)C(C)C)c1nnc(-c2ccc(C(C)(C)C)cc2)s1 :: 19.7
10. CC(/C=N/NC(=O)c1cc(-c2ccc3ccccc3c2)n[nH]1)=C\c1ccco1 :: 2.36

Now for another entry.
[in] Recorded inhibition for O=C(CSc1ccccc1)Nc1ccc(NC(=O)c2ccco2)cc1 , please?
[out] 3.77
